- protocolSummary: Pharmacokinetic study in rats, plasma by HPLC-Ion-Trap-MS/MS
- Assay type: in vivo, Sprague-Dawley rats
- measurementContext: Sprague-Dawley, rat, plasma, po, 17 mg/kg
measuredProperty: AUC(0-t) (ng·h/mL)
API: value field is a number in ng·h/mL; no unit string.

GET /value?item= O=C(O)/C=C/c1ccc(O)c(O)c1 [Caffeic acid] &field=AUC(0-t) returns 787

###

- protocolSummary: Pharmacokinetic study in rats, plasma by HPLC-Ion-Trap-MS/MS
- Type: in vivo, Sprague-Dawley rats
- measurementContext: Sprague-Dawley, rat, plasma, po, 17 mg/kg
measuredProperty: Tmax (min)
API: value field is a number in min; no unit string.

GET /value?item= `O=C(O)/C=C/c1ccc(O)c(O)c1` &field=Tmax returns 15
